Exercise: state measured normalized growth for each of the compounds provided.
# Assay details: chemical genetic growth profiling, strain panel (AID 1159580);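 also: tested at 20 µM; growth read once vehicle control cultures reached saturation at 30 °C; 1 = growth at the plate median or of vehicle wells; lower values mean less growth of the strain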
# Assay context: S. cerevisiae deletion strains, growth OD, locus YLR403W, strain SFP1, stronger effect = lower value
The campaign covered roughly 5,500 compounds. About 2,000 (36%) were called active. Inconclusive results (about 18%) are left out. Some of the results follow.
Give only the figure.

INPUT: For the compound shown here, CN(C)/C=C1\CSc2ccc(Cl)cc2C1=O , give the reported normalized growth.
OUTPUT: 0.792

INPUT: Next compound: ONC(=Nc1ccccc1Cl)c1ccccc1Cl
OUTPUT: 0.832

INPUT: Can you check O=S(=O)(Nc1ccccc1Sc1c(Cl)cncc1Cl)c1ccc(Cl)cc1 next?
OUTPUT: 1

INPUT: And N/C(=N/OC(=O)c1ccc([N+](=O)[O-])cc1)c1c(Cl)cccc1Cl ?
OUTPUT: 0.69

INPUT: Next up: COc1ccccc1N1CCN(C(=O)C(C)c2ccc(CC(C)C)cc2)CC1 (stereo unspecified)
OUTPUT: 0.95

INPUT: Note, next up: O=C(OCc1ccccc1Br)c1cc([N+](=O)[O-])cc([N+](=O)[O-])c1
OUTPUT: 0.857

INPUT: Here is the next compound: CC(C)/C(=N/OC(=O)c1ccc([N+](=O)[O-])cc1)c1ccccc1
OUTPUT: 0.0636

INPUT: Also, O=c1cc(CSc2ccc(Cl)cc2)c2ccc(O)cc2o1 please.
OUTPUT: 0.639

INPUT: // query: N#C/C(N=Cc1cc(Cl)cc(Cl)c1O)=C(\C#N)N=Cc1cc(Cl)cc(Cl)c1O
OUTPUT: 0.457

INPUT: Thanks! And Cc1ccc(Sc2ncccc2NS(=O)(=O)c2ccc(Cl)cc2)cc1 ?
OUTPUT: 0.861

INPUT: Input O=c1[nH][nH]c(=O)n1CCCc1cc2cccc3ccc4cccc1c4c32
OUTPUT: 0.908
